System: T84 (Colorectal Carcinoma)
Experiment: combination Emax (second highest fraction inhibited in the dose matrix, 72 h); higher = more inhibition; extreme values may be limits of the assay
endpoint label: combination Emax
Numbers only.

### Prompt Notebook: pull reported combination Emax for T84 (Colorectal Carcinoma), entry COc1nnc2ccc(N3CCC(c4ccc(OCCN5CCN(C)C(=O)[C@H]5C)cc4)CC3)nn12 [AZD5153] + C[C@@H]1COCCN1C2=NC(=NC(=C2)C3(CC3)[S@](=N)(=O)C)C4=C5C=CNC5=NC=C4 [AZD6738] (first compound max 1 µM, 7x7, partner max 10 µM)
### Response 0.583

###

Tested on: GAK (Melanoma)
Assay: combination Emax (second highest fraction inhibited in the dose matrix, 72 h); higher = more inhibition; extreme values may be limits of the assay
endpoint label: combination Emax
Numbers only.

# batch: return combination Emax for each of the 3 compounds below
1. CN(CCO)CC[C@H](CSc1ccccc1)Nc1ccc(S(=O)(=O)NC(=O)c2ccc(N3CCC([C@@H](O)c4ccccc4-c4ccc(Cl)cc4)CC3)cc2)cc1S(=O)(=O)C(F)(F)F [AZD4320] + CC(=O)O[C@H]1C(=O)[C@@]2(C)[C@H]([C@H](OC(=O)c3ccccc3)[C@]3(O)C[C@H](OC(=O)[C@H](O)[C@@H](NC(=O)c4ccccc4)c4ccccc4)C(C)=C1C3(C)C)[C@]1(OC(C)=O)CO[C@@H]1C[C@@H]2O [Paclitaxel] (first compound max 1 µM, 7x7, partner max 3 µM)
2. COc1cccc(OCCCN)c1-c1cc(Nc2cnc(C#N)cn2)n[nH]1 [Prexasertib] + O=C(c1cc(Cc2n[nH]c(=O)c3ccccc23)ccc1F)N1CCN(C(=O)C2CC2)CC1 [Olaparib] (first compound max 1 µM, 7x7, partner max 10 µM)
3. COc1cccc(OCCCN)c1-c1cc(Nc2cnc(C#N)cn2)n[nH]1 [Prexasertib] + Cc1cc2ncnn2cc1Nc1ncc2c(n1)n(C1CCOCC1)c(=O)n2C [AZD7648] (first compound max 1 µM, 7x7, partner max 10 µM)

### Response
1. 0.709
2. 0.668
3. 0.708

###

Give combination Emax for every item shown.
Tested on: NAMALWA (Burkitt's Lymphoma)
Test: combination Emax (second highest fraction inhibited in the dose matrix, 72 h); higher = more inhibition; extreme values may be limits of the assay
One number for each entry.

NC1(C(=O)N[C@@H](CCO)c2ccc(Cl)cc2)CCN(c2ncnc3[nH]ccc23)CC1 [Capivasertib] + CC(C)n1c(=O)n(C)c2cnc3cc(F)c(-c4ccc(OCCCN5CCCCC5)nc4)cc3c21 [AZD1390] (first compound max 10 µM, 7x7, partner max 0.3 µM) | 0.44
C=CCn1c(=O)c2cnc(Nc3ccc(N4CCN(C)CC4)cc3)nc2n1-c1cccc(C(C)(C)O)n1 [AZD1775] + C1CN(CCC1(C(=O)N[C@@H](CCO)C2=CC=C(C=C2)Cl)N)C3=NC=NC4=C3C=CN4 [Capivasertib] (first compound max 3 µM, partner max 3 µM) | 0.981
CC1(C)CCC(CN2CCN(c3ccc(C(=O)NS(=O)(=O)c4ccc(NCC5CCOCC5)c([N+](=O)[O-])c4)c(Oc4cnc5[nH]ccc5c4)c3)CC2)=C(c2ccc(Cl)cc2)C1 [Venetoclax] + C[C@@H](Nc1cc(F)cc(F)c1)c1cc(C(=O)N(C)C)cc2c(=O)cc(N3CCOCC3)oc12 [AZD8186] (first compound max 1 µM, 7x7, partner max 3 µM) | 0.428

# batch: return combination Emax for each of the 4 compounds below
1. CN(CCO)CC[C@H](CSc1ccccc1)Nc1ccc(S(=O)(=O)NC(=O)c2ccc(N3CCC([C@@H](O)c4ccccc4-c4ccc(Cl)cc4)CC3)cc2)cc1S(=O)(=O)C(F)(F)F [AZD4320] + CN(C)CCCOc1ccc(-c2ccc3ncc4c(c3c2)n(C2CCOCC2)c(=O)n4C)cn1 [AZD0156] (first compound max 1 µM, 7x7, partner max 1 µM)
2. CN(CCO)CC[C@H](CSc1ccccc1)Nc1ccc(S(=O)(=O)NC(=O)c2ccc(N3CCC([C@@H](O)c4ccccc4-c4ccc(Cl)cc4)CC3)cc2)cc1S(=O)(=O)C(F)(F)F [AZD4320] + C[C@@H]1COCCN1C2=NC(=NC(=C2)C3(CC3)[S@](=N)(=O)C)C4=C5C=CNC5=NC=C4 [AZD6738] (first compound max 1 µM, 7x7, partner max 10 µM)
3. CCN(CCO)CCCOc1ccc2c(Nc3cc(CC(=O)Nc4cccc(F)c4)[nH]n3)ncnc2c1 [AZD2811] + C=CCn1c(=O)c2cnc(Nc3ccc(N4CCN(C)CC4)cc3)nc2n1-c1cccc(C(C)(C)O)n1 [AZD1775] (first compound max 1 µM, partner max 1 µM)
4. Cc1c2c(nn1C)CSCc1cc(n(C)n1)CSc1cc(c3ccccc3c1)OCCCc1c(C(=O)O)n(C)c3c-2c(Cl)ccc13 [AZD5991] + Cc1cc2ncnn2cc1Nc1ncc2c(n1)n(C1CCOCC1)c(=O)n2C [AZD7648] (first compound max 1 µM, 7x7, partner max 10 µM)

### Response
[0.158, 0.928, 0.977, 1]
